tested on: HCT-15 colon; test: NCI tumour cell line growth inhibition, 48 h
Hi there, I'd appreciate the recorded TGI for every entry that follows.
Numbers only, in µM.

• Cc1nnc([S-])o1.[Au+].c1ccc([PH+](c2ccccc2)c2ccccc2)cc1 = 3.08

Attention now turns to another entry.
Q. Param item = `CN(CCO)C1CCN(c2ccc(Nc3ncc4c5ccnc(F)c5n(C5CCCC5)c4n3)nc2)CC1` ; retrieve measured TGI.
A. 7.79

* * *

test system: SK-MEL-2 melanoma; test: NCI tumour cell line growth inhibition, 48 h; in the data active = GI50 below about 0.43 µM; inactive = the rest
Valid outcomes are listed here; reply with one: active, inactive

Here are 5 compounds together with their reported answers.
- O=NNc1ccc(S(=O)c2ccccc2)cn1 (stereo unspecified): inactive
- O[C@H]1C=C2[C@H](C[C@@H]1O)CN1C[C@H]2c2cc3c(cc21)OCO3: inactive
- O=c1ccc(N=Nc2ccccc2)ccc1Cl: inactive
- CCC(/C=C(C)/C=C/C(=O)c1c(O)c(-c2ccc(O)cc2)c[nH]c1=O)CO (stereo unspecified): inactive
- Nc1nc2cc(-c3ccc4ncc(C(=O)N5CCOCC5)n4c3)ccc2o1: inactive

Please look at the following compound next.
Q. Each compound tested received a call. Report the one for `O=C1c2ccc3c4c(ccc(c24)C(=O)N1CCCNCc1ccccc1F)C(=O)N(CCCNCc1ccccc1F)C3=O` .
A. active
